Values were extracted from ChEMBL document CHEMBL1255210.

Target: Diacylglycerol O-acyltransferase 1 (Homo sapiens)
Test: Inhibition of human liver flag-tagged DGAT1 expressed in baculovirus infected insect cells after 2 hrs
measurement_label: IC50 (nM)
Value expressed in nM; do not type the unit.

C=CCc1c(C(=O)OCC)c(C(=O)OCC)c2c(-c3ccccc3)cc(N3CCOCC3)nn12 : 75
CCCc1c(-c2nc(CC)no2)c(C(=O)OCC)c2c(-c3ccccc3)cc(N3CCOCC3)nn12 : 110
CCOC(=O)c1c(C(=O)OCC)c2c(-c3ccccc3)cc(N3CCOCC3)nn2c1CC : 240
CCCc1noc(-c2c(C(=O)OCC)c3c(-c4ccccc4)cc(N4CCOCC4)nn3c2CCC)n1 : 65
CCOC(=O)c1c(C(=O)OCC)c2c(-c3ccccc3)cc(N3CCOCC3)nn2c1C1CC1 : 620
CCOC(=O)c1c(C(=O)OCC)c2c(-c3ccccc3)cc(N3CCOCC3)nn2c1-c1ccc(OCc2ccccc2)cc1 : 60

Continue with the compound presented below.
Per the record, CCOC(=O)c1c(C(=O)OCC)c2c(-c3ccccc3)cc(N3CCOCC3)nn2c1C has IC50 of 520

---

IC50 listing for selected molecules.
Target: Diacylglycerol O-acyltransferase 1 (Homo sapiens, UniProt O75907)
Experiment: Inhibition of DGAT1 in human Caco-2 cells after 30 mins
Format: cell-based
Please provide the amount together with its unit, number first.

CCCCc1noc(-c2c(C(=O)OCC)c3c(-c4ccccc4)cc(N4CCOCC4)nn3c2CCC)n1 : 69 nM
CCCc1c(-c2nc(-c3ccccc3)no2)c(C(=O)OCC)c2c(-c3ccccc3)cc(N3CCOCC3)nn12 : 200 nM
CCCc1c(-c2nc(CCO)no2)c(C(=O)OCC)c2c(-c3ccccc3)cc(N3CCOCC3)nn12 : 260 nM

Lab note: CCCc1c(-c2nc(C(C)C)no2)c(C(=O)OCC)c2c(-c3ccccc3)cc(N3CCOCC3)nn12 gave IC50 of 51 nM

---

Target: Diacylglycerol O-acyltransferase 1 (Homo sapiens)
Assay: Inhibition of human liver flag-tagged DGAT1 expressed in baculovirus infected insect cells after 2 hrs
Reported pIC50 values for a set of molecules
Please note pIC50 is a logarithmic value: minus log10 of concentration in mol/L. Answer with that number alone.

For orientation, consider the following solved cases.
CCCc1c(C(=O)OCC)c(C(=O)OCC)c2c(-c3ccccc3)cc(N3CCCC3)nn12 : 6.92
CCCc1c(C(=O)OCC)c(C(=O)OCC)c2c(-c3ccccc3)cc(N3CCC3)nn12 : 5.87
CCOC(=O)c1c(C(=O)OCC)c2c(-c3ccccc3)cc(N3CCOCC3)nn2c1-c1ccc(O)cc1 : 6.24
CCCCc1noc(-c2c(C(=O)OCC)c3c(-c4ccccc4)cc(N4CCOCC4)nn3c2CCC)n1 : 7.14

Memo: CCCCCc1noc(-c2c(C(=O)OCC)c3c(-c4ccccc4)cc(N4CCOCC4)nn3c2CCC)n1 , reported pIC50: 6.96

Measured pIC50, CCOC(=O)c1c(C(=O)OCC)c2c(-c3ccccc3)cc(N3CCOCC3)nn2c1COC : 6.62

Per the record, CCCc1c(C(=O)OCC)c(C(=O)OCC)c2c(-c3ccccc3F)cc(N3CCOCC3)nn12 has pIC50 of 6.24

Per the records, this molecule ( CCOC(=O)c1c(C(=O)OCC)c2c(-c3ccccc3)cc(N3CCOCC3)nn2c1-c1ccc(-c2ccccc2)cc1 ) has pIC50 equal to 6.60

Quick note, pIC50 for CCCc1c(-c2nc(C(C)C)no2)c(C(=O)OCC)c2c(-c3ccccc3)cc(N3CCOCC3)nn12 landed at 7.24

---

Molecular target: Sterol O-acyltransferase 1 (Homo sapiens, UniProt P35610)
Sequence (P35610 whole entry): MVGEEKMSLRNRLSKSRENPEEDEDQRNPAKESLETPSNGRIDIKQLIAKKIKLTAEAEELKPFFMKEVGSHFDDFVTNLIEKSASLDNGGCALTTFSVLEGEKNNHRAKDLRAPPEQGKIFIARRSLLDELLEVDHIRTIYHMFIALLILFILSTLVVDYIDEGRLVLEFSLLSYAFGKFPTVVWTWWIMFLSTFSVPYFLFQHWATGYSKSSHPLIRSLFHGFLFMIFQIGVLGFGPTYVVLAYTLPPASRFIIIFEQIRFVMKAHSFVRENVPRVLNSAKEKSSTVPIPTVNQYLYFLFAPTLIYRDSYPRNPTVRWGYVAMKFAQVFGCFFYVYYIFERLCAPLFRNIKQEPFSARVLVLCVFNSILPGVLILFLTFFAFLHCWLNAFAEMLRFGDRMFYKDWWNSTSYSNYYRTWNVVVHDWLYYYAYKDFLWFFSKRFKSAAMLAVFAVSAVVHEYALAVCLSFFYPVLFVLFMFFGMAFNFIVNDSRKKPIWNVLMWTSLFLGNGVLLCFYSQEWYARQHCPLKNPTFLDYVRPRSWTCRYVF
pIC50: −log10 of the molar value.
Form field: pIC50 (one value per entry).

CCCc1c(-c2nc(C(C)C)no2)c(C(=O)OCC)c2c(-c3ccccc3)cc(N3CCOCC3)nn12 : > 6.00
CCCc1c(-c2nc(CC)no2)c(C(=O)OCC)c2c(-c3ccccc3)cc(N3CCOCC3)nn12 : > 6.00

# context switch: different compound, same pIC50
The compound listed as CCOC(=O)c1c(C(=O)OCC)c2c(-c3ccccc3)cc(N3CCOCC3)nn2c1-c1ccc(-c2ccccc2)cc1 has a reported pIC50 of > 6.52

---

Biological target: Diacylglycerol O-acyltransferase 1 (Homo sapiens, UniProt O75907)
Experiment: Inhibition of human liver flag-tagged DGAT1 expressed in baculovirus infected insect cells after 2 hrs
pIC50: −log10 of the molar value.
measurement_label: pIC50

These recorded examples may help you get a feel for the data.
CCCc1c(C(=O)OCC)c(C(=O)OCC)c2c(C(C)(C)C)cc(N3CCOCC3)nn12 : < 5.52
CCOC(=O)c1c(C(=O)OCC)c2c(-c3ccccc3)cc(N3CCOCC3)nn2c1CCCO : < 6.00
CCCc1cc(N2CCOCC2)nn2c(CCC)c(C(=O)OCC)c(C(=O)OCC)c12 : < 5.52
CCCc1c(C(=O)OCC)c(C(=O)OCC)c2c(C3CCCCC3)cc(N3CCOCC3)nn12 : < 5.52
CCCc1c(C(=O)OCC)c(C(=O)OCC)c2c(C3CCCC3)cc(N3CCOCC3)nn12 : < 5.52

// moving on: another record for pIC50
# value of pIC50, Diacylglycerol O-acyltransferase 1 (Homo sapiens, UniProt O75907), item CCOC(=O)c1c(C(=O)OCC)c2c(-c3ccccc3)cc(N3CCOCC3)nn2c1CCCN(C)C = < 6.00

---

// reported IC50 for each item listed
Target: Diacylglycerol O-acyltransferase 1 (Homo sapiens, UniProt O75907)
Sequence (O75907 whole entry): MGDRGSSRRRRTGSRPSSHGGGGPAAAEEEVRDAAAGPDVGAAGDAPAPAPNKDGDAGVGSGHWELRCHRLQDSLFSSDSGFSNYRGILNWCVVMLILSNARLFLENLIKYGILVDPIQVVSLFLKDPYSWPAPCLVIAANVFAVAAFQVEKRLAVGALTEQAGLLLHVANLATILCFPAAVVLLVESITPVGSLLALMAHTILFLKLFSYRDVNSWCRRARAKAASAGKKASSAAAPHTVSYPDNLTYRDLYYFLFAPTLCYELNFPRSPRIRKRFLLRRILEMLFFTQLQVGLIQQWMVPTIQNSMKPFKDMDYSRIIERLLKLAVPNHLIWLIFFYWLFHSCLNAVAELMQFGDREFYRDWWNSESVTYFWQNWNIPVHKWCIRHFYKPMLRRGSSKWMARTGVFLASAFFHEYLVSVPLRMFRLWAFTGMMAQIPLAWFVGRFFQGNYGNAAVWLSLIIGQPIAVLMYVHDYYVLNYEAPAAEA
Assay: Inhibition of human liver flag-tagged DGAT1 expressed in baculovirus infected insect cells after 2 hrs
API: value field is a number in nM; no unit string.

A selection of reference data follows.
CCOC(=O)c1c(C(=O)OCC)c2c(-c3ccccc3)cc(N3CCOCC3)nn2c1CCCOC : 270
CCCc1c(-c2nc(-c3ccccc3)no2)c(C(=O)OCC)c2c(-c3ccccc3)cc(N3CCOCC3)nn12 : 180
CCCc1c(C(=O)OCC)c(C(=O)OCC)c2c(-c3ccccc3)cc(N3CCOCC3)nn12 : 120
CCCc1c(-c2nc(CCO)no2)c(C(=O)OCC)c2c(-c3ccccc3)cc(N3CCOCC3)nn12 : 180
CCOC(=O)c1c(C(=O)OCC)c2c(-c3ccccc3)cc(N3CCOCC3)nn2c1-c1ccc(N)cc1 : 630

Proceeding to the next compound to report its IC50.
Lab entry: Diacylglycerol O-acyltransferase 1 (Homo sapiens, UniProt O75907) assay, compound CCCCc1c(C(=O)OCC)c(C(=O)OCC)c2c(-c3ccccc3)cc(N3CCOCC3)nn12 , IC50 = 160

---

Biological target: Diacylglycerol O-acyltransferase 1 (Homo sapiens)
Sequence (O75907 whole entry): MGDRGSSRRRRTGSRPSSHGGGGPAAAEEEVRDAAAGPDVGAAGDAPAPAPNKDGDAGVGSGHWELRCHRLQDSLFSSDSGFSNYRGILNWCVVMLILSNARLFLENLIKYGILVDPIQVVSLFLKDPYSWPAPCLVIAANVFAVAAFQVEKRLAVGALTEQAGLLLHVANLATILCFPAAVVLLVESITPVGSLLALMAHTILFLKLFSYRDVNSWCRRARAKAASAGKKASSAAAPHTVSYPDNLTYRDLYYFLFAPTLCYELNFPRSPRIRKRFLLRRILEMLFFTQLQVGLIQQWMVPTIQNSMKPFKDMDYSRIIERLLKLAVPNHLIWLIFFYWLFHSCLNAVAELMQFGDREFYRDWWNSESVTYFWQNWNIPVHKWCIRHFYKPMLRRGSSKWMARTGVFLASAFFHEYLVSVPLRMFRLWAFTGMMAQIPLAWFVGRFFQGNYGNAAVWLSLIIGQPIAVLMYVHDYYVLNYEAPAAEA
Assay: Inhibition of human liver flag-tagged DGAT1 expressed in baculovirus infected insect cells after 2 hrs
pIC50: −log10 of the molar value.
measurement_label: pIC50

Guide cases for pIC50, answers given:
CCCc1c(C(=O)OCC)c(C(=O)OCC)c2c(-c3ccccc3)cc(N3C[C@@H](C)O[C@@H](C)C3)nn12 : < 5.52
CCOC(=O)c1cn2nc(N3CCOCC3)cc(-c3ccccc3)c2c1C(=O)OCC : < 5.52

GET /value?item= CCCc1c(C(=O)OCC)c(C(=O)OCC)c2c(C3CCC3)cc(N3CCOCC3)nn12 &field=pIC50 returns < 5.52
